experiment: NCI Yeast Anticancer Drug Screen. Data for the mlh1 rad18 strain (AID 175); conditions: S. cerevisiae mlh1 rad18 strain growth inhibition; at 5.0 µM (retest, dose inferred, filed as 0.5); active compounds read high
Compounds without any hit were thinned out: in the full panel of roughly 79,000, 15% have a hit.
Overview of reported growth inhibition across a group of compounds:
Report as a plain number; the unit % is understood.

stdin: Suppose we examine the compound COc1cc(C2c3cc4c(cc3[C@@H](Nc3ccc(N)cc3)C3COC(=O)[C@H]23)OCO4)cc(OC)c1O (some centres undefined) ; what growth inhibition value has been reported?
stdout: 70

stdin: What do you have for ClC1=C(Cl)C2(Cl)C(C3CO3)CC1(Cl)C2(Cl)Cl (centres undefined) ?
stdout: 0

stdin: Same thing, different compound: CSc1nncc(=O)[nH]1.[Hg]
stdout: 99

stdin: What would you report for CCC(C)(C)c1ccc(O)cc1 ?
stdout: -2

stdin: Also, S=P(Nc1ccccc1)(Nc1ccccc1)Oc1ccccc1 please.
stdout: 7

Further cases:
stdin: What value of measured growth inhibition is listed for CCc1cc2c(cc1-c1csc(C/C(N)=N/O)n1)C(C)(C)CCC2(C)C ?
stdout: 60

stdin: // repeat for ClC1=C(Cl)C(Cl)(Cl)SS1 and report
stdout: 99

stdin: Now consider CCC[CH2][Sn]1([CH2]CCC)[O]CC(CN2CCCC2)[O]1 (centres undefined) .
stdout: 48

---

test: NCI Yeast Anticancer Drug Screen. Data for the wt2 strain (AID 169);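 also: 0% = growth of vehicle-treated yeast cultures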; conditions: S. cerevisiae wt2 strain growth inhibition; at 11.0 µM; active compounds read high
About 79,000 compounds went through this panel and 15% of them were active in at least one assay; those are over-represented in the sample as a whole.
The entries below are paired with their reported growth inhibition.
Number only, in %; omit the unit.

Examples with answers:
stdin: // returns reported growth inhibition for input COc1ccc(OC)c(/C=C/[N+](=O)[O-])c1
stdout: -2

stdin: Also, CCNCC(=O)O[C@]1(CC)C(=O)OCc2c1cc1n(c2=O)Cc2cc3ccccc3nc2-1 please.
stdout: -19

stdin: Same question for CCCN(CCC)c1c([N+](=O)[O-])cc(S(N)(=O)=O)cc1[N+](=O)[O-] please.
stdout: -7

stdin: Please do the same for O=Cc1ccc(C(F)(F)F)cc1.[C-]#[O+].[C-]#[O+].[C-]#[O+].[Cr] as well.
stdout: 23

stdin: Would you mind doing CC1CN1C1=C(Cl)C(=O)C(N2CC2C)=C(Cl)C1=O (stereo unspecified) as well?
stdout: 43

Further cases:
stdin: Sample O=C(O)C1C2CCC(C2)C1c1ccccc1 (stereo unspecified) — what was its growth inhibition?
stdout: -3

stdin: Similarly, CCOC(=O)C1C2c3ccccc3C(c3ccccc32)C1C(=O)OCC (stereo unspecified) ?
stdout: 7

stdin: C[N+](CCCl)(CCCl)Cc1cccc2cccc([N+](=O)[O-])c12 , same question.
stdout: -10

---

Quick reference for growth inhibition among some compounds
assay: NCI Yeast Anticancer Drug Screen. Data for the sgs1 mgt1 strain (AID 161);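 also: 0% = growth of cultures given vehicle only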; settings: S. cerevisiae sgs1 mgt1 strain, at 50.0 µM (retest, dose inferred, filed as 5.0), active compounds read high
The panel holds about 79,000 compounds, 15% with a hit somewhere; the sample as a whole holds those more often.
Quick reminder: number only, in %, skip the unit.

Previously resolved entries follow.
stdin: Would you mind telling me what growth inhibition value was observed for O=C(O)C1C2c3cccc4cccc(c34)C12 (stereo not given) ?
stdout: 74

stdin: Continue with CC(=O)[CH-]C(=O)c1ccccc1.CC(=O)[CH-]C(=O)c1ccccc1.C[C@]12CCC(=O)C=C1CC[C@@H]1C2CC[C@@]2(C)C1CC[C@]2(C)[O-].C[C@]12CCC(=O)C=C1CC[C@@H]1C2CC[C@@]2(C)C1CC[C@]2(C)[O-].Cl.[Ti+4] (stereo not given in full)
stdout: 93

stdin: Entry CC1=C(N2CC2)C(=O)c2ccccc2C1=O please
stdout: 72

Others:
stdin: I have this compound here, [Br][Cd][Br].c1ccc([PH+](c2ccccc2)c2ccccc2)cc1.c1ccc([PH+](c2ccccc2)c2ccccc2)cc1 , and I need its recorded growth inhibition.
stdout: 55

stdin: c1ccncc1 ?
stdout: 19

stdin: Cool, now CN1CSC(=S)N(C)C1
stdout: 97
